Here's a roundup of log10 IC50 values tested on L-selectin (Homo sapiens), taken from various published works.
property: log10 IC50 (log10 of the value in µM)

compound	study-target	reported
O=C(CCc1cc(O)c(O)c(O)c1)Nc1cccc(C(=O)O)c1	L-selectin (Homo sapiens)	1.67
Cc1ccc(C(=O)O)cc1NC(=O)CCc1cc(O)c(O)c(O)c1	L-selectin (Homo sapiens)	0.62
O=C(O)Cc1ccc(-c2ccccc2NC(=O)CCc2cc(O)c(O)c(O)c2)s1	L-selectin (Homo sapiens)	1.13
O=C(O)Cc1ccc(-c2ccccc2NC(=O)/C=C/c2cc(O)c(O)c(O)c2)s1	L-selectin (Homo sapiens)	1.33
O=C(O)Cc1ccc(-c2ccccc2NC(=O)Cc2cccc(-c3ccc(O)c(O)c3O)c2)s1	L-selectin (Homo sapiens)	0.99
O=C(O)Cc1ccc(-c2ccccc2NC(=O)c2ccc(-c3ccc(O)c(O)c3O)cc2)s1	L-selectin (Homo sapiens)	0.20
O=C(CCc1cc(O)c(O)c(O)c1)N[C@H]1CC[C@H](C(=O)O)CC1	L-selectin (Homo sapiens)	0.76
COc1ccc(CCCC(=O)O)cc1C1OC(C)C(O)C(O)C1O (stereo unspecified)	L-selectin (Homo sapiens)	2.23
COc1ccc(C2(C(=O)O)CCCCC2)cc1C1OCC(O)C(O)C1O (stereo unspecified)	L-selectin (Homo sapiens)	1.04
COc1ccc(C2(C(=O)O)CCCCC2)cc1[C@H]1O[C@@H](C)[C@H](O)[C@H](O)[C@@H]1O	L-selectin (Homo sapiens)	1.54
O=C(O)Cc1ccc(-c2ccccc2NC(=O)CCCc2ccc(O)c(O)c2O)s1	L-selectin (Homo sapiens)	1.62
CCCCCCCCCCCCCCCC(=O)N[C@H](COC1OC(C)C(O)C(O)C1O)C(=O)NC(CCC(=O)O)C(=O)NC (stereo partly specified)	L-selectin (Homo sapiens)	2.30
CCCCCCCCCCCCCCC(CCCCCCCCCCCCCC)C(=O)N[C@H](COC1OC(C)C(O)C(O)C1O)C(=O)NC(CC(=O)O)C(=O)NC (stereo partly specified)	L-selectin (Homo sapiens)	0.58
CCCCCCCCCCCCCCC(CCCCCCCCCCCCCC)C(=O)N[C@H](CO[C@H]1O[C@@H](C)[C@@H](O)[C@H](O)[C@@H]1O)C(=O)N[C@H](CCC(=O)O)C(=O)NC	L-selectin (Homo sapiens)	-0.15
CCCCCCCCCCCCCCC(CCCCCCCCCCCCCC)C(=O)N[C@H](CO[C@H]1O[C@H](CO)[C@@H](O)[C@@H](O)[C@@H]1O)C(=O)N[C@@H](CCC(=O)O)C(=O)NC	L-selectin (Homo sapiens)	0.60
COc1ccc(CC(=O)O)cc1C1OC(C)C(O)C(O)C1O (stereo unspecified)	L-selectin (Homo sapiens)	0.48
O=C(O)Cc1ccc(-c2ccccc2NC(=O)CCc2ccc(O)c(O)c2O)s1	L-selectin (Homo sapiens)	1.93
CCCCCCCCCCCCCCC(CCCCCCCCCCCCCC)C(=O)N[C@@H](CO[C@H]1O[C@@H](C)[C@@H](O)[C@H](O)[C@@H]1O)C(=O)N[C@H](CCC(=O)O)C(=O)NC	L-selectin (Homo sapiens)	-0.10
O=C(O)Cc1ccc(-c2ccccc2NC(=O)CCCc2cc(O)c(O)c(O)c2)s1	L-selectin (Homo sapiens)	2.02
COc1cc(CC(=O)O)c(C2OC(C)C(O)C(O)C2O)c(OC)c1OC (stereo unspecified)	L-selectin (Homo sapiens)	2.06
CCCCCCCCCCCCCCC(CCCCCCCCCCCCCC)C(=O)N[C@@H](CO[C@H]1O[C@H](CO)[C@@H](O)[C@@H](O)[C@@H]1O)C(=O)N[C@H](CCC(=O)O)C(=O)NC (stereo in doubt; 5b)	L-selectin (Homo sapiens)	0.49
O=C(O)Cc1cccc(-c2ccccc2NC(=O)CCCNC(=O)c2cc(O)c(O)c(O)c2)c1	L-selectin (Homo sapiens)	2.19
CCCCCCCCCCCCCCC(CCCCCCCCCCCCCC)C(=O)N[C@@H](CO[C@H]1O[C@@H](C)[C@@H](O)[C@H](O)[C@@H]1O)C(=O)N[C@@H](CCC(=O)O)C(=O)NC	L-selectin (Homo sapiens)	0.26

---

Sequence of the target: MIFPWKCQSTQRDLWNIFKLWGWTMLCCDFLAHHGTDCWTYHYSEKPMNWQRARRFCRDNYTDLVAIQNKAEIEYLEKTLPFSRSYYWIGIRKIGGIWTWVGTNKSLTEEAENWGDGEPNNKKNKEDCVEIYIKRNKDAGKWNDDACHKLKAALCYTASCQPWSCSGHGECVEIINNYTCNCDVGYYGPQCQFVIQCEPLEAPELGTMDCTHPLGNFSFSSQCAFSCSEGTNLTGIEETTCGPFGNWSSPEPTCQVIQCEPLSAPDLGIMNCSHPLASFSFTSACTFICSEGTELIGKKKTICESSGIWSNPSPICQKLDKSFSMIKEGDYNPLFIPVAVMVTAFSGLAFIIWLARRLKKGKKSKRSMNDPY
Across several publications, the following IC50 results were reported for the protein given by its sequence.
property: IC50

molecule	property	reported
CCCCCCCCCCCCCCC(CCCCCCCCCCCCCC)C(=O)N[C@H](COC1OC(C)C(O)C(O)C1O)C(=O)N[C@@H](CCC(=O)OC)C(=O)NC (stereo partly drawn)	IC50	> 500 µM
O=C(O)Cc1cccc(-c2ccccc2O[C@H]2O[C@H](CO)[C@@H](O)[C@H](O)[C@@H]2O)c1	IC50	> 500 µM
CC(=O)N[C@H]1[C@H]([C@H](O)[C@H](O)CO)O[C@@](O[C@H]2[C@@H](O)[C@@H](CO)O[C@@H](O[C@@H]([C@H](O[C@@H]3O[C@@H](C)[C@@H](O)[C@@H](O)[C@@H]3O)[C@H](C=O)NC(C)=O)[C@H](O)CO)[C@@H]2O)(C(=O)O)C[C@@H]1O	IC50	> 1000 µM
